Each entry below carries its reported pIC50.
Target: Lck (Homo sapiens, UniProt P06239)
Sequence (P06239 whole entry, species assumed): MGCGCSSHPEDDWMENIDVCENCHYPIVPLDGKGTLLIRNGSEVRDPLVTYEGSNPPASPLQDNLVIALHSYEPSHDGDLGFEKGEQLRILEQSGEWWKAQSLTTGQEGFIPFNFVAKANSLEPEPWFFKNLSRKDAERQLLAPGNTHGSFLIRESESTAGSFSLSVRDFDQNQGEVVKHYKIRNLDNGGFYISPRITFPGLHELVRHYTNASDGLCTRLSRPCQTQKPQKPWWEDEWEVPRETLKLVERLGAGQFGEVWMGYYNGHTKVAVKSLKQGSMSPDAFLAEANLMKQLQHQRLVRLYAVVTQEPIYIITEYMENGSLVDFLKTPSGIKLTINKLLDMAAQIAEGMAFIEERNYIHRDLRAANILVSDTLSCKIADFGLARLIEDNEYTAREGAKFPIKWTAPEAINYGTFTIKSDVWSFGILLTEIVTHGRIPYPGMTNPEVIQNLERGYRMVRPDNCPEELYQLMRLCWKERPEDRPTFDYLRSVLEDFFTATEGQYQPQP
Experiment: Lck kinase activity, TR-FRET assay
Type: biochemical
Details: read-out: LCK (IC50)
pIC50: −log10 of the molar value.
quantity.measured: pIC50

{"compound": "CC(C)c1ccnc(NC(=O)c2ccc(Oc3ccnc4[nH]nc(N[C@@H]5CCN(C(=O)/C=C/CN(C)C6CC6)C5)c34)cc2)c1 [compound 61]", "recorded.value": "6.00 to 7.00"}
{"compound": "Cc1ccnc(NC(=O)c2ccc(Oc3ccnc4[nH]nc(N[C@@H]5CCCN(C(=O)[C@@H]6CCCO6)C5)c34)cc2)c1 [compound 117]", "recorded.value": "< 5.00"}
{"compound": "Cc1ccnc(NC(=O)c2ccc(Oc3ccnc4[nH]nc(N[C@@H]5CCCN(C(=O)c6cccc(F)c6)C5)c34)cc2)c1 [compound 247]", "recorded.value": "5.00 to 6.00"}
{"compound": "C=CC(=O)N1CC[C@@H](Nc2n[nH]c3nccc(Oc4ccc(Oc5ccccc5)cc4)c23)C1 [compound 4]", "recorded.value": "> 7.00"}
{"compound": "Cc1cc(Oc2ccccc2)ccc1Oc1ccnc2[nH]nc(N[C@@H]3CCCN(C(=O)/C=C/CN(C)C4CC4)C3)c12 [compound 169]", "recorded.value": "> 7.00"}
{"compound": "CN(C)c1ccnc(NC(=O)c2ccc(Oc3ccnc4[nH]nc(N[C@@H]5CCN(C(=O)/C=C/CN(C)C6CC6)C5)c34)cc2)c1 [compound 68]", "recorded.value": "5.00 to 6.00"}
{"compound": "Cc1cnc(NC(=O)c2ccc(Oc3ccnc4[nH]nc(N[C@@H]5CCN(C(=O)CCCN(C)C)C5)c34)cc2)s1 [compound 202]", "recorded.value": "5.00 to 6.00"}
{"compound": "C=CC(=O)N1CCC[C@@H](Nc2n[nH]c3nccc(Oc4ccc(C(=O)Nc5ncc(C)s5)cc4)c23)C1 [compound 140]", "recorded.value": "6.00 to 7.00"}
{"compound": "C=CC(=O)N1CCC[C@@H](Nc2n[nH]c3nccc(Oc4ccc(C(=O)Nc5nnc(C)s5)cc4)c23)C1 [compound 187]", "recorded.value": "< 5.00"}
{"compound": "COCCC(=O)N1CCC[C@@H](Nc2n[nH]c3nccc(Oc4ccc(C(=O)Nc5cc(C)ccn5)cc4)c23)C1 [compound 119]", "recorded.value": "6.00 to 7.00"}
{"compound": "CN(C/C=C/C(=O)N1CC[C@@H](Nc2n[nH]c3nccc(Oc4ccc(C(=O)Nc5cc(OC6CC6)ccn5)cc4)c23)C1)C1CC1 [compound 76]", "recorded.value": "6.00 to 7.00"}
{"compound": "N#C/C(=C\\c1ncc[nH]1)C(=O)N1CC[C@@H](Nc2n[nH]c3nccc(Oc4ccc(Oc5ccccc5)cc4)c23)C1 [compound 28]", "recorded.value": "6.00 to 7.00"}
{"compound": "O=C(Nc1ccccn1)c1ccc(Oc2ccnc3[nH]nc(N[C@@H]4CCCN(C(=O)C5CC5)C4)c23)cc1 [compound 232]", "recorded.value": "< 5.00"}
{"compound": "Cc1cc(NC(=O)c2cccc(Nc3ccnc4[nH]nc(N[C@@H]5CCCN(C(=O)N6CCOCC6)C5)c34)c2)ccc1C(C)C [compound 133]", "recorded.value": "5.00 to 6.00"}

Source: patent US9580416B2
